Biological target: Protein kinase C alpha type (Homo sapiens)
Test: Inhibition of human PKCalpha assessed as residual activity at 0.1 uM relative to control
reported metric: Activity (%)

> print(dat)
                                   molecule  reported.value
1  CNS(=O)(=O)c1ccc2c(c1)/C(=C/c1cn(C)c3ccc(OC)cc13)C(=O)N2             101
2  COc1ccc2[nH]cc(/C=C3\C(=O)Nc4ccc(S(N)(=O)=O)cc43)c2c1             104
3  COc1ccc2c(c1)c(/C=C1\C(=O)Nc3ccc(S(N)(=O)=O)cc31)cn2C              91
4  CN(C)S(=O)(=O)c1ccc2c(c1)/C(=C/c1cn(C)c3ccc(O)cc13)C(=O)N2              96
5  Cn1cc(/C=C2\C(=O)Nc3ccc(S(N)(=O)=O)cc32)c2ccccc21             106
6  COc1ccc2c(c1)c(/C=C1\C(=O)Nc3ccc(S(=O)(=O)N(C)C)cc31)cn2C              93

====

Target: High affinity nerve growth factor receptor (Homo sapiens)
Sequence (P04629 whole entry): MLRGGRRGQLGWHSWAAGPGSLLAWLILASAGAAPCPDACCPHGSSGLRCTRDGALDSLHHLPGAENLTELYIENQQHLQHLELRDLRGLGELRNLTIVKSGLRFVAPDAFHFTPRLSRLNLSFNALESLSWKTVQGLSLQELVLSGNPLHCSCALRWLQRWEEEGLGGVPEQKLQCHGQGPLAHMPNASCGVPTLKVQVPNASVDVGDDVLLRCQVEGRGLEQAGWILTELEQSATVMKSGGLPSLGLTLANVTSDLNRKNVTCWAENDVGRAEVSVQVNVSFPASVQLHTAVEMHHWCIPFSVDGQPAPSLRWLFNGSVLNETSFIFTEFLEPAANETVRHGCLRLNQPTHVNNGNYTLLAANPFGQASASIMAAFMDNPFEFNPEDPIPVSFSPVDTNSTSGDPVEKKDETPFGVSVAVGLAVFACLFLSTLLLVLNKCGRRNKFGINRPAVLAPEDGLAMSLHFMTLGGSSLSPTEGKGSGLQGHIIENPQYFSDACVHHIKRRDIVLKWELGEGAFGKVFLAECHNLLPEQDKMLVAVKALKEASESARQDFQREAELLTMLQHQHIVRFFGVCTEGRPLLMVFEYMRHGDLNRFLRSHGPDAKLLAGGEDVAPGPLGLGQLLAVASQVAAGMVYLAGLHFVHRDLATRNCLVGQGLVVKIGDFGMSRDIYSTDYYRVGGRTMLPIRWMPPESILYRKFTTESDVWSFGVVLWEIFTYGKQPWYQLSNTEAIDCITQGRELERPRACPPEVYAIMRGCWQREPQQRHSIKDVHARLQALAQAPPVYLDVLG
Experiment: Inhibition of TrkA (unknown origin)
reported metric: IC50 (nM)

> print(dat)
                                   molecule  result.qualifier  reported.value
1  NS(=O)(=O)c1ccc2c(c1)/C(=C/c1c[nH]c3ccccc13)C(=O)N2                 =            11.1
2  COc1ccc2[nH]cc(/C=C3\C(=O)Nc4ccc(S(N)(=O)=O)cc43)c2c1                 =            8.49
3    Cc1[nH]c2ccccc2c1/C=C1\C(=O)Nc2ccccc21                 >           10000
4   O=C1Nc2ccccc2/C1=C\c1c(Cl)[nH]c2ccccc12                 >           10000
5  Cn1cc(/C=C2\C(=O)Nc3ccc(S(N)(=O)=O)cc32)c2ccccc21                 =            4.17
6  COc1ccc2c(c1)c(/C=C1\C(=O)Nc3ccc(S(=O)(=O)N(C)C)cc31)cn2C                 =            10.1
7     Cn1cc(/C=C2\C(=O)Nc3ccccc32)c2ccccc21                 =            25.7
8  NS(=O)(=O)c1ccc2c(c1)/C(=C/c1c[nH]c3ccc(O)cc13)C(=O)N2                 =            5.22
9  CN(C)S(=O)(=O)c1ccc2c(c1)/C(=C/c1cn(C)c3ccc(O)cc13)C(=O)N2                 =            9.17

====

Target: Serine/threonine-protein kinase Nek6 (Homo sapiens) (UniProt Q9HC98)
Sequence (Q9HC98 whole entry): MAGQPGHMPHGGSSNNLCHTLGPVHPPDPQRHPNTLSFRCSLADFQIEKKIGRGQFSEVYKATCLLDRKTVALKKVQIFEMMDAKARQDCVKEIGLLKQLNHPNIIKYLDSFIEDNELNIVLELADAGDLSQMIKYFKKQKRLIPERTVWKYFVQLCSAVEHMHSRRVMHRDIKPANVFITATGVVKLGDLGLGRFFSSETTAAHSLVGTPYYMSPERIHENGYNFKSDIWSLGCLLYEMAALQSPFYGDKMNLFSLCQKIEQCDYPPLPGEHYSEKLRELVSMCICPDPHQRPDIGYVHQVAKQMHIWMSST
Assay: Inhibition of human NEK6 assessed as residual activity at 0.1 uM relative to control
Reported Activity values for the following molecules.
reported metric: Activity (%)

> print(dat)
                                   molecule  unit.string  reported.value
1  CNS(=O)(=O)c1ccc2c(c1)/C(=C/c1cn(C)c3ccc(OC)cc13)C(=O)N2            %              99
2  Cn1cc(/C=C2\C(=O)Nc3ccc(S(N)(=O)=O)cc32)c2ccccc21            %             111
3  COc1ccc2c(c1)c(/C=C1\C(=O)Nc3ccc(S(N)(=O)=O)cc31)cn2C            %             106
4  CN(C)S(=O)(=O)c1ccc2c(c1)/C(=C/c1cn(C)c3ccc(O)cc13)C(=O)N2            %             104
5  COc1ccc2c(c1)c(/C=C1\C(=O)Nc3ccc(S(=O)(=O)N(C)C)cc31)cn2C            %             100
6  COc1ccc2[nH]cc(/C=C3\C(=O)Nc4ccc(S(N)(=O)=O)cc43)c2c1            %             117

====

Target: Calcium/calmodulin-dependent protein kinase kinase 2 (Homo sapiens) (UniProt Q96RR4)
Sequence (Q96RR4 2-588 limits assumed): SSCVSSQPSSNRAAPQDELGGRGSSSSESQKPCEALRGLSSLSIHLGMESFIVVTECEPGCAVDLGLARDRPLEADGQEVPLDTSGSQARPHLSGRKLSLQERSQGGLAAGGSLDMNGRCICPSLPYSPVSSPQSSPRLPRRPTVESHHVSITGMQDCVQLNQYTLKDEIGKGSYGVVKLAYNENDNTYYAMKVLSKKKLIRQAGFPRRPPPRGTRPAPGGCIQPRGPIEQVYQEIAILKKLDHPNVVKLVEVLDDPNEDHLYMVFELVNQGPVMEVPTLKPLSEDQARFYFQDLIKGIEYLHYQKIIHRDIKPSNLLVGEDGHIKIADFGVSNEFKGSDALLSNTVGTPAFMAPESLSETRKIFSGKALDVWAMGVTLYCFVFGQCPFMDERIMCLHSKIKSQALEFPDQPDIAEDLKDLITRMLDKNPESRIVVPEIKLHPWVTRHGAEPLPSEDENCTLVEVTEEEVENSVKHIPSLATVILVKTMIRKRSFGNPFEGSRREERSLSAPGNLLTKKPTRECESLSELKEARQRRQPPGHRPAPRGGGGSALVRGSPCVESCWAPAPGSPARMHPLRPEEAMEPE
Test: Inhibition of human CAMKK2 assessed as residual activity at 0.1 uM relative to control
Please enter label 1 where Activity is greater than or equal to 60%, and label 0 where it is lower.

> print(dat)
                                   molecule                             tested.target    group
1  COc1ccc2c(c1)c(/C=C1\C(=O)Nc3ccc(S(=O)(=O)N(C)C)cc31)cn2C  Calcium/calmodulin-dependent protein kinase kinase 2 (Homo sapiens) (UniProt Q96RR4)  label 1
2  COc1ccc2[nH]cc(/C=C3\C(=O)Nc4ccc(S(N)(=O)=O)cc43)c2c1  Calcium/calmodulin-dependent protein kinase kinase 2 (Homo sapiens) (UniProt Q96RR4)  label 1
3  Cn1cc(/C=C2\C(=O)Nc3ccc(S(N)(=O)=O)cc32)c2ccccc21  Calcium/calmodulin-dependent protein kinase kinase 2 (Homo sapiens) (UniProt Q96RR4)  label 1
4  CNS(=O)(=O)c1ccc2c(c1)/C(=C/c1cn(C)c3ccc(OC)cc13)C(=O)N2  Calcium/calmodulin-dependent protein kinase kinase 2 (Homo sapiens) (UniProt Q96RR4)  label 0
5  COc1ccc2c(c1)c(/C=C1\C(=O)Nc3ccc(S(N)(=O)=O)cc31)cn2C  Calcium/calmodulin-dependent protein kinase kinase 2 (Homo sapiens) (UniProt Q96RR4)  label 0
6  CN(C)S(=O)(=O)c1ccc2c(c1)/C(=C/c1cn(C)c3ccc(O)cc13)C(=O)N2  Calcium/calmodulin-dependent protein kinase kinase 2 (Homo sapiens) (UniProt Q96RR4)  label 1

====

Biological target: Casein kinase I isoform delta (Homo sapiens) (UniProt P48730)
Sequence (P48730 whole entry, looked up, canonical isoform): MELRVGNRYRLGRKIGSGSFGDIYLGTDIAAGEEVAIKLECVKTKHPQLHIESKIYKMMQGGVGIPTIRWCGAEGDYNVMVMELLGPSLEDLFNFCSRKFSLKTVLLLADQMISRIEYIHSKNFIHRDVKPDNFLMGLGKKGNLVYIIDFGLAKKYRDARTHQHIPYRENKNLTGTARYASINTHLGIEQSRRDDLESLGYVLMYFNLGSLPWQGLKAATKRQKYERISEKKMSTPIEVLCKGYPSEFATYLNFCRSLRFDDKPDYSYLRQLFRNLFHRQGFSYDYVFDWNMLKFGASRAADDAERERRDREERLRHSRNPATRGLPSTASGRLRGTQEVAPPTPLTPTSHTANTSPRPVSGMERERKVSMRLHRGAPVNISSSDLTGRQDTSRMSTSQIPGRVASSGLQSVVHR
Assay: Inhibition of human CK1-delta assessed as residual activity at 0.1 uM relative to control
reported metric: Activity (%)

> print(dat)
                                   molecule  reported.value
1  COc1ccc2[nH]cc(/C=C3\C(=O)Nc4ccc(S(N)(=O)=O)cc43)c2c1              92
2  COc1ccc2c(c1)c(/C=C1\C(=O)Nc3ccc(S(=O)(=O)N(C)C)cc31)cn2C              89
3  COc1ccc2c(c1)c(/C=C1\C(=O)Nc3ccc(S(N)(=O)=O)cc31)cn2C              87
4  CN(C)S(=O)(=O)c1ccc2c(c1)/C(=C/c1cn(C)c3ccc(O)cc13)C(=O)N2              88
5  CNS(=O)(=O)c1ccc2c(c1)/C(=C/c1cn(C)c3ccc(OC)cc13)C(=O)N2              89
6  Cn1cc(/C=C2\C(=O)Nc3ccc(S(N)(=O)=O)cc32)c2ccccc21              88

====

Target: Dual specificity protein kinase TTK (Homo sapiens)
Sequence (whole entry): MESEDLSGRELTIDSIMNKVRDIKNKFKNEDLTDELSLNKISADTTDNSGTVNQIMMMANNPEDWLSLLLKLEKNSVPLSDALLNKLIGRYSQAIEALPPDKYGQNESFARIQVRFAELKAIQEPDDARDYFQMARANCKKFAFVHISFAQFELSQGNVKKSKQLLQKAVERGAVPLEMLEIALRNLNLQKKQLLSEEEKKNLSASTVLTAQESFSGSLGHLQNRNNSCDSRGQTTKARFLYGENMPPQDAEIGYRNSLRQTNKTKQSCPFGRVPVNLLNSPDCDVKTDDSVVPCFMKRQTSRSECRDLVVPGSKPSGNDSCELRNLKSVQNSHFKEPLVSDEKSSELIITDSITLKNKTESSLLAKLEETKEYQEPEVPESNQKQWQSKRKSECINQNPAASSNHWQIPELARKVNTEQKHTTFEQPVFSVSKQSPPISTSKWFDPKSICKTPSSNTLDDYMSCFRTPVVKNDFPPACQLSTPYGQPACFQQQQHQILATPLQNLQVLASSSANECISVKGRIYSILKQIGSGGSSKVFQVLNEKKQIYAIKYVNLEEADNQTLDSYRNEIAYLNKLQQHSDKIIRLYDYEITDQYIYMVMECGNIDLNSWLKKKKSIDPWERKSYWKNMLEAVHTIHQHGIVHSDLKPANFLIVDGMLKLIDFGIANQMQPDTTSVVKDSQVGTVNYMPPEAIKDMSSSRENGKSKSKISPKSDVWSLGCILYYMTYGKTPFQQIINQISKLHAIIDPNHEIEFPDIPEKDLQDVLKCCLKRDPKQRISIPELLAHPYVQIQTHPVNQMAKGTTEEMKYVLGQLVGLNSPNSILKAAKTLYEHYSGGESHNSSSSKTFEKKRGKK
Assay: Inhibition of human TTK assessed as residual activity at 0.1 uM relative to control
reported metric: Activity (%)

> print(dat)
                                   molecule  reported.value
1  CNS(=O)(=O)c1ccc2c(c1)/C(=C/c1cn(C)c3ccc(OC)cc13)C(=O)N2              99
2  COc1ccc2c(c1)c(/C=C1\C(=O)Nc3ccc(S(=O)(=O)N(C)C)cc31)cn2C             102
3  COc1ccc2[nH]cc(/C=C3\C(=O)Nc4ccc(S(N)(=O)=O)cc43)c2c1             101
4  COc1ccc2c(c1)c(/C=C1\C(=O)Nc3ccc(S(N)(=O)=O)cc31)cn2C             109
5  CN(C)S(=O)(=O)c1ccc2c(c1)/C(=C/c1cn(C)c3ccc(O)cc13)C(=O)N2             104
6  Cn1cc(/C=C2\C(=O)Nc3ccc(S(N)(=O)=O)cc32)c2ccccc21             104
